Overview of recorded logD for various molecules
Test summary: physchem
Measurement context: octan-1-ol/water, pH 7.4, LogD7.4

CCC(CC)NC(=O)c1cnn(C)c1NS(=O)(=O)c1ccc(C)cc1 ... 0.36
Cc1c(CCC(=O)O)c(=O)oc2c(C)c(O)ccc12 ... -0.3
CN[C@@H](C)C(=O)N[C@H](C(=O)N1CC[C@H]2CC[C@H](NC(=O)c3cccc4ccccc34)[C@H]21)C(C)(C)C ... 1.94
CC(C)N1CCN[C@@H](CN2CCN(C(=O)Nc3ccc(Cl)c(Cl)c3)CC2)C1 ... 1.92
CN(C)C(=O)N1CCC(C(=O)NCc2cccs2)CC1 ... 1.1
CN(C)CCCN1c2ccccc2Sc2ccccc21 ... 2.56

Inquiry: Quick one: logD of `CCN(CC)CCNC(=O)c1c(C)[nH]c(/C=C2\C(=O)Nc3ccc(Cl)cc32)c1C` ?
Reply text: 2.75

Inquiry: // query logD value for entry `O=C1OC2(c3ccc(O)cc3Oc3cc(O)ccc32)c2ccccc21`
Reply text: 0

Inquiry: # query: logD of entry `CCOc1ccc(-c2cnc3n2CCC3)cc1`
Reply text: 2.65

Inquiry: Which logD value belongs to `O=S(=O)(Nc1nncs1)c1cc(Cl)c(Oc2ccc(C(F)(F)F)cc2-c2ccnnc2)cc1F` ?
Reply text: 1.15

Inquiry: logD for `COc1ccc(COc2nc(Br)cnc2NS(=O)(=O)c2ccc(C)cc2)cc1OCCN(C)C` ?
Reply text: 1.68

----------
Test summary: in vitro
Measurement context: human, plasma, PPB
fraction unbound at 5 h strictly less than 0.05 = True. Otherwise False.

O=C(c1cccc(Cc2n[nH]c(=O)c3ccccc23)c1)N1CCN(c2ncccn2)CC1 ... False
CCOc1ccc(-n2c([C@@H](C)N(Cc3cccnc3)C(=O)Cc3ccc(OC(F)(F)F)cc3)nc3ncccc3c2=O)cc1 ... True
Cc1ccc(S(=O)(=O)Nc2c(C(=O)NC3CCCCC3C)c(C)nn2-c2ccccc2)cc1 (stereo not given) ... True

Inquiry: For `CCC(CC)NC(=O)c1nnn(-c2ccccc2)c1NS(=O)(=O)c1ccc(C)cc1` , is the recorded fraction unbound at 5 h below the cut-off of 0.05?
Reply text: True

Inquiry: Does the reported fraction unbound at 5 h of the following compound sit strictly below 0.05? `CCOc1cc2nnc(C(N)=O)c(Nc3cc(C)ccc3F)c2cc1N1CCN(C)CC1`
Reply text: False

Inquiry: API: query returns whether the compound falls strictly under 0.05 in fraction unbound at 5 h. Query: `CCNC(=O)c1cc2c(-n3ccc(C(F)(F)F)n3)c(-c3cncc(C(=O)O)c3)cnc2[nH]1`
Reply text: False

Inquiry: Answer whether the compound `CCOc1cc2ncc(C(N)=O)c(Nc3cccc(Cl)c3Cl)c2cc1N1CCN(C(=O)CO)CC1` has fraction unbound at 5 h strictly less than 0.05
Reply text: False

Inquiry: I wonder whether `COCCNCC(=O)NC12CC3CC(CC(C3)C1)C2` has fraction unbound at 5 h below 0.05. Can you tell?
Reply text: False

Inquiry: Consider the compound `O=C(CCS(=O)(=O)c1ccc(Br)cc1)NCc1ccc(F)cc1` . Is its fraction unbound at 5 h strictly less than 0.05?
Reply text: True

Inquiry: Hello, is fraction unbound at 5 h of the following compound strictly smaller than 0.05? `CC(=O)Nc1ccc2ccn(-c3cc(NCCCN4CCCC4)n4ncc(C#N)c4n3)c2c1`
Reply text: False

Inquiry: Dear reviewer, please state whether `c1ccc2c(c1)CCC[C@H]2Nc1nc2ccccc2[nH]1` has fraction unbound at 5 h strictly beneath 0.05.
Reply text: True

Inquiry: Does the reported fraction unbound at 5 h of the following compound sit strictly below 0.05? `CN(C)c1nc(NC[C@H]2CC[C@H](CNS(=O)(=O)c3ccc(Br)cc3OC(F)(F)F)CC2)nc2ccccc12`
Reply text: True

Inquiry: Below 0.05 on fraction unbound at 5 h? Entry `CC(C)(C)NC(=O)NCCN1CCC(CNC(=O)c2cc(Cl)cc(Cl)c2)CC1`
Reply text: False

Inquiry: Is it true that fraction unbound at 5 h reported for `C[C@H]1CN(Cc2cc(Cl)ccc2OCC(=O)O)CCN1S(=O)(=O)c1ccccc1` is less than 0.05?
Reply text: True

Inquiry: Record `Clc1ccc2ncc(-c3cccc(NC4CNC4)n3)n2c1` : is its fraction unbound at 5 h strictly below 0.05?
Reply text: False

Inquiry: In plain terms, does `O=C(O)c1cncc(-c2ccc(Cl)c(C(=O)NCC34CC5CC(CC(C5)C3)C4)c2)c1` come in under 0.05 for fraction unbound at 5 h?
Reply text: True

Inquiry: Quick check: does `Cc1ccc(Sc2ccccc2CN(C)C)c(N)c1` have fraction unbound at 5 h under 0.05?
Reply text: False

Inquiry: Please indicate whether the reported fraction unbound at 5 h of `O=S(=O)(N[C@H](CO)C(C(F)(F)F)C(F)(F)F)c1ccc(Cl)s1` is strictly below 0.05.
Reply text: False

Inquiry: Consider the compound `N#Cc1c(-c2ccc(-c3ccccc3Cl)cc2)nc2ccncc2c1O` . Is its fraction unbound at 5 h strictly less than 0.05?
Reply text: True

Inquiry: Consider the compound `CN(C)CCOc1cc(NS(=O)(=O)c2c(Cl)cc(C(F)(F)F)cc2Cl)ccc1Cl` . Is its fraction unbound at 5 h strictly less than 0.05?
Reply text: True

----------
Listed below: fraction unbound at 5 h values for each entry.
Test summary: in vitro
Measurement context: SD, HW or BN, rat, plasma
Hey, just send me the number, nothing else.

O=C(NCCc1ccccc1Cl)c1cc(-n2ncc(=O)[nH]c2=O)ccc1Cl ... 0.0224
C[C@@H]1C[C@H]2[C@@H]3CCC4=CC(=O)C=C[C@]4(C)[C@@]3(Cl)[C@@H](O)C[C@]2(C)[C@@]1(OC(=O)c1ccco1)C(=O)CCl [MOMETASONE FUROATE] ... 0.001

Inquiry: I would be grateful if you could share the reported fraction unbound at 5 h for `O=C(NCC1(O)CCCCCC1)c1cc(-n2ncc(=O)[nH]c2=O)ccc1Cl` .
Reply text: 0.129

Inquiry: Give the measured fraction unbound at 5 h of CO[C@H]1CC[C@]2(CC1)Cc1ccc(-c3cncc(Br)c3)cc1C21N=C(C)C(N)=N1 (some centres undefined) .
Reply text: 0.0661

Inquiry: Which fraction unbound at 5 h value is on record for `NC(=O)c1ccc(-n2nnnc2Oc2ccc(Br)cc2)cc1` ?
Reply text: 0.0872

Inquiry: Look up fraction unbound at 5 h for this compound: O=C(NCc1ccc(OCC(F)(F)F)nc1)C1c2ccccc2C(=O)N1CCc1ccccn1 (centres undefined)
Reply text: 0.371

Inquiry: Need fraction unbound at 5 h, item Cc1cc(Oc2ncc(C(F)(F)F)cc2Cl)ccc1CC1SC(=O)NC1=O (centres undefined)
Reply text: 0.0021

Inquiry: Query (compound): `c1cncc(Nc2ncc(-c3ccncn3)c(-c3ccco3)n2)c1` ; field requested: fraction unbound at 5 h
Reply text: 0.139

Inquiry: Could you tell me which fraction unbound at 5 h is on file for `Cc1onc(-c2ccccc2)c1C(=O)N(C)c1ccc(Cl)cc1` ?
Reply text: 0.0752

----------
Test summary: in vitro
Measurement context: SD, HW or BN, rat, plasma
Assay readout: fraction unbound at 5 h
Field format: numeric only.

Examples from the recorded data:
Nc1nc(-c2nn(Cc3ccccc3F)c3ncccc23)nc(N)c1N1CCOCC1 ... 0.117
CC(O)(C(=O)Nc1ccc(S(=O)(=O)N2CCOCC2)cc1)C(F)(F)F (stereo not given) ... 0.151
Cc1ccc(NC(=O)c2cccc(N3CCOCC3)c2)cc1-n1cnc2ccc(N3CCN(C)CC3)cc2c1=O ... 0.103
CCC(CC)n1nc(C)c(C(=O)N[C@@H](C)C(C)(C)C)c1NS(=O)(=O)c1ccc(C)cc1 ... 0.0818

// moving on: another record for fraction unbound at 5 h
Inquiry: Field request: fraction unbound at 5 h | item: `O=C(Nc1ccc(N2CCNCC2)cc1)c1ccc(-c2ccc(Cl)cc2)o1`
Reply text: 0.0055

----------
Let's look at some compounds and their measured fraction unbound at 5 h.
Test summary: in vitro
Measurement context: human, plasma, PPB

Answered cases to consult:
CC(C)c1noc(C2CCN(c3ncnc(Nc4ccc(S(C)(=O)=O)cc4F)c3[N+](=O)[O-])CC2)n1 ... 0.0099
O=C(NC[C@@H](O)CN1CCC(Oc2ccc(Cl)c(Cl)c2)CC1)c1cc(=O)[nH]c2ccccc12 ... 0.0183
COc1cnc(-c2ccccn2)nc1N(C)C ... 0.163
O=C(NCC12CC3CC(CC(C3)C1)C2)c1cc(CC2CCNCC2)ccc1Cl ... 0.0872
COc1cccc(OC)c1OCCNCC1COc2ccccc2O1 (stereo unspecified) ... 0.024
NS(=O)(=O)c1ccc(N2N=C(c3ccc(Br)cc3)CC2c2ccc(F)cc2)cc1 (stereo unspecified) ... 0.105
C[C@H](CO)Nc1nc(SCc2ccco2)nc2[nH]c(=O)sc12 ... 0.016
COc1ccc2ncc(=O)n(CCN3CC[C@H](NCc4cc5c(cn4)OCCO5)[C@H](O)C3)c2c1 ... 0.194
Cc1ccc(NC(=O)Nc2nnc(-c3ccncc3)s2)cc1 ... 0.0061
CC(C)COc1ccc(-c2cc(=O)[nH]c(N)n2)cc1C#N ... 0.0409

Inquiry: Consider the compound shown here: `Cc1ccc(/C(=C\CN2CCCC2)c2ccccn2)cc1` What is its recorded fraction unbound at 5 h?
Reply text: 0.645

Inquiry: Give its fraction unbound at 5 h value. Item: `Fc1ccc([C@@H]2CCNC[C@H]2COc2ccc3c(c2)OCO3)cc1`
Reply text: 0.101

Inquiry: I am curious: what fraction unbound at 5 h value has been reported for `CC(C)(C)S(=O)(=O)CCCN1CCN(CC(=O)NC23CC4CC(CC(C4)C2)C3)CC1` ?
Reply text: 0.349

Inquiry: May I ask what fraction unbound at 5 h has been recorded for `COc1ccc2ncc(=O)n(CCN3CC[C@@H](NCc4cc5c(cn4)OCCO5)[C@@H](O)C3)c2c1` ?
Reply text: 0.142

Inquiry: What fraction unbound at 5 h value was documented for this compound, COCC(C)n1nc(C)c(C(=O)N[C@@H](C)C(C)(C)C)c1NS(=O)(=O)c1ccc(C)cc1 (stereo partly specified) ?
Reply text: 0.0836

Inquiry: GET /values?readout=fraction unbound at 5 h&item= `Cc1ccc2c(c1)c(Sc1cccc(Cl)c1)c(C)n2CC(=O)O`
Reply text: 0.0036

Inquiry: If you can, please state the reported fraction unbound at 5 h value of O=C(O)C(c1ccccc1)N1CCO[C@H](CN2CCC(Oc3ccc(Cl)c(Cl)c3)CC2)C1 (stereo partly specified) .
Reply text: 0.0064

Inquiry: Please look up its fraction unbound at 5 h: `Cc1cc(Nc2cnc(C#N)c(N[C@@H](C)c3ncc(F)cn3)n2)n[nH]1`
Reply text: 0.186

Inquiry: Which fraction unbound at 5 h value belongs to `CC(CO)(CO)Nc1nc(SCc2cccc(F)c2F)nc2nc(N)sc12` ?
Reply text: 0.129

Inquiry: Record request: fraction unbound at 5 h value, item `COc1cnc(-c2ccccn2)nc1NC(C)C`
Reply text: 0.224

Inquiry: What does the data say about its fraction unbound at 5 h? Entry: `COc1cc(Nc2nc(N[C@@H](C)c3ncc(F)cn3)ncc2Br)n[nH]1`
Reply text: 0.124
